Source listed as paper PMC8151276.

Give measured NanoBRET Fold Response for each item. Keep answers brief.
Target: SSTR4 (Homo sapiens)
Construct: purchased Promega (in-house HiBiT-GPCR construct library, NanoBRET)
Sequence (P31391 whole entry): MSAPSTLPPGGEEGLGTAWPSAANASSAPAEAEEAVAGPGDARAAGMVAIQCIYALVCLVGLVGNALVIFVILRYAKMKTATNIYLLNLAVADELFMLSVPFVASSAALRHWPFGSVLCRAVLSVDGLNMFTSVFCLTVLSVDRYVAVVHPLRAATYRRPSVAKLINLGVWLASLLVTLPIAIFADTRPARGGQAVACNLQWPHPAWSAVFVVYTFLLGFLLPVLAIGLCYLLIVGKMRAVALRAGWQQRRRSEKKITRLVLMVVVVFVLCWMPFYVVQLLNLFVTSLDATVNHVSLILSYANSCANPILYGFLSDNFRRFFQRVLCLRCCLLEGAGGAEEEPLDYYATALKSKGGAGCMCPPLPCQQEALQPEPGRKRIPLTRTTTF
Experiment: NanoBRET screen HiBiT-SSTR4 in HEK293
Assay type: binding
Conditions: SSTR4; tracer 1μM
The response must contain the number and no unit.

Q. Fill blank: measured NanoBRET Fold Response of the compound CCCn1c(=O)c2[nH]c(-c3ccc(OCC(=O)NCCNC(=O)CCOCCNC(=O)c4ccc(CNC(=O)CCc5ccc6n5[B-](F)(F)[N+]5=C(c7ccc[nH]7)C=CC5=C6)cc4)cc3)nc2n(CCC)c1=O [XAC-3-NB590] is ____.
A. 0.93

Q. Fill blank: measured NanoBRET Fold Response of the compound O=C(CCc1ccc2n1[B-](F)(F)[N+]1=C(c3ccc[nH]3)C=CC1=C2)NCc1ccc(C(=O)NCCOCCC(=O)N[C@@H]2CC[C@@]3(O)[C@H]4Cc5ccc(O)c6c5[C@@]3(CCN4CC3CC3)[C@H]2O6)cc1 [Naltrexone-3-NB590] is ____.
A. 0.90

Q. Fill blank: measured NanoBRET Fold Response of the compound O=C(CCc1ccc2n1[B-](F)(F)[N+]1=C(c3ccc[nH]3)C=CC1=C2)NCCOCCOCCNC(=O)OCCOCCN1CCN(C2=Nc3ccccc3Sc3ccccc32)CC1 [Quetiapine-a-2-NB590] is ____.
A. 0.83

Q. Fill blank: measured NanoBRET Fold Response of the compound N#CN=C(NCCCOc1cccc(CN2CCCCC2)c1)NCCNC(=O)CCOCCOCCOCCOCCNC(=O)CCc1ccc2n1[B-](F)(F)[N+]1=C(c3ccc[nH]3)C=CC1=C2 [Aminopotentidine-2-NB590] is ____.
A. 1.00

Q. Fill blank: measured NanoBRET Fold Response of the compound COc1ccccc1N1CCN(CCCCN2C(=O)c3ccc(CNC(=O)CCOCCOCCOCCOCCNC(=O)CCc4ccc5n4[B-](F)(F)[N+]4=C(c6ccc[nH]6)C=CC4=C5)cc3C2=O)CC1 [NAN-190-2-NB590] is ____.
A. 1.00

###

Biological target: BDKRB1 (Homo sapiens)
Construct: purchased Promega (in-house HiBiT-GPCR construct library, NanoBRET)
Sequence (P46663 1-353): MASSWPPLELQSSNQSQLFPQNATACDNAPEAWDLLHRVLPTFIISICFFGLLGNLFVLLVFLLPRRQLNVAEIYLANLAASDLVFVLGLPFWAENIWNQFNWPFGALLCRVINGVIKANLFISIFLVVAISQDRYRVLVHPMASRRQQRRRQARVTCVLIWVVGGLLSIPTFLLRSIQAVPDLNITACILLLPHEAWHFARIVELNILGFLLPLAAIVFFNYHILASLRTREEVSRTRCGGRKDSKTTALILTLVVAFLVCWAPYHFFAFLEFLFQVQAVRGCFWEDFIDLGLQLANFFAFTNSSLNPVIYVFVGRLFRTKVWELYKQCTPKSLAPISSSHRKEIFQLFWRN
Assay: NanoBRET screen HiBiT-BDKRB1 in HEK293
Type: binding
Settings: BDKRB1; tracer 0.1μM
Give measured NanoBRET Fold Response for each item. Keep answers brief.
The response must contain the number and no unit.

Q. // lookup NanoBRET Fold Response | system=BDKRB1 (Homo sapiens) | key= "CC(C)N(CC[C@H](c1ccccc1)c1cc(CCNC(=O)CCOCCOCCOCCOCCNC(=O)CCc2ccc3n2[B-](F)(F)[N+]2=C(c4ccc[nH]4)C=CC2=C3)ccc1O)C(C)C"
A. 0.99

Q. // lookup NanoBRET Fold Response | system=BDKRB1 (Homo sapiens) | key= "O=C(CCOCCOCCOCCOCCNC(=O)CCc1ccc2n1[B-](F)(F)[N+]1=C(c3ccc[nH]3)C=CC1=C2)NCCCN1CCN(C2=Nc3ccccc3Oc3ccc(Cl)cc32)CC1"
A. 1.05

Q. // lookup NanoBRET Fold Response | system=BDKRB1 (Homo sapiens) | key= "COc1ccccc1N1CCN(CCCCN2C(=O)c3ccc(CNC(=O)CCOCCNC(=O)c4ccc(CNC(=O)CCc5ccc6n5[B-](F)(F)[N+]5=C(c7ccc[nH]7)C=CC5=C6)cc4)cc3C2=O)CC1"
A. 0.84

Q. // lookup NanoBRET Fold Response | system=BDKRB1 (Homo sapiens) | key= "CC(C)N(CC[C@H](c1ccccc1)c1cc(CCNC(=O)c2ccc(CNC(=O)CCc3ccc4n3[B-](F)(F)[N+]3=C(c5ccc[nH]5)C=CC3=C4)cc2)ccc1O)C(C)C"
A. 1.02

Q. // lookup NanoBRET Fold Response | system=BDKRB1 (Homo sapiens) | key= O=C(CCc1ccc2n1[B-](F)(F)[N+]1=C(c3ccc[nH]3)C=CC1=C2)NCc1ccc(C(=O)NCCOCCC(=O)N[C@@H]2CC[C@@]3(O)[C@H]4Cc5ccc(O)c6c5[C@@]3(CCN4CC3CC3)[C@H]2O6)cc1 [Naltrexone-3-NB590]
A. 1.18

Q. // lookup NanoBRET Fold Response | system=BDKRB1 (Homo sapiens) | key= "N#CN=C(NCCCOc1cccc(CN2CCCCC2)c1)NCCNC(=O)CCOCCOCCOCCOCCNC(=O)CCc1ccc2n1[B-](F)(F)[N+]1=C(c3ccc[nH]3)C=CC1=C2"
A. 1.01

Q. // lookup NanoBRET Fold Response | system=BDKRB1 (Homo sapiens) | key= "O=C(CCc1ccc2n1[B-](F)(F)[N+]1=C(c3ccc[nH]3)C=CC1=C2)NCCOCCOCCNC(=O)OCCOCCN1CCN(C2=Nc3ccccc3Sc3ccccc32)CC1"
A. 1.42

Q. // lookup NanoBRET Fold Response | system=BDKRB1 (Homo sapiens) | key= "COc1ccccc1N1CCN(CCCCN2C(=O)c3ccc(CNC(=O)CCOCCOCCOCCOCCNC(=O)CCc4ccc5n4[B-](F)(F)[N+]4=C(c6ccc[nH]6)C=CC4=C5)cc3C2=O)CC1"
A. 1.05

Q. // lookup NanoBRET Fold Response | system=BDKRB1 (Homo sapiens) | key= "CCCn1c(=O)c2[nH]c(-c3ccc(OCC(=O)NCCNC(=O)CCOCCNC(=O)c4ccc(CNC(=O)CCc5ccc6n5[B-](F)(F)[N+]5=C(c7ccc[nH]7)C=CC5=C6)cc4)cc3)nc2n(CCC)c1=O"
A. 0.91

Q. // lookup NanoBRET Fold Response | system=BDKRB1 (Homo sapiens) | key= Cc1nc2n(c(=O)c1CCN1CCC(c3noc4cc(F)ccc34)CC1)CCCC2OC(=O)NCCOCCOCCOCCOCCNC(=O)CCc1ccc2n1[B-](F)(F)[N+]1=C(c3ccc[nH]3)C=CC1=C2 (centres unmarked)
A. 1.28

Q. // lookup NanoBRET Fold Response | system=BDKRB1 (Homo sapiens) | key= "Cc1cc2c(s1)Nc1ccccc1N=C2N1CCN(CCCNC(=O)CCOCCOCCOCCOCCNC(=O)CCc2ccc3n2[B-](F)(F)[N+]2=C(c4ccc[nH]4)C=CC2=C3)CC1"
A. 0.83

###

Give measured NanoBRET Fold Response for each item. Keep answers brief.
Biological target: P2RY14 (Homo sapiens)
Construct: purchased Promega (in-house HiBiT-GPCR construct library, NanoBRET)
Sequence (Q15391 whole entry, one chain of several): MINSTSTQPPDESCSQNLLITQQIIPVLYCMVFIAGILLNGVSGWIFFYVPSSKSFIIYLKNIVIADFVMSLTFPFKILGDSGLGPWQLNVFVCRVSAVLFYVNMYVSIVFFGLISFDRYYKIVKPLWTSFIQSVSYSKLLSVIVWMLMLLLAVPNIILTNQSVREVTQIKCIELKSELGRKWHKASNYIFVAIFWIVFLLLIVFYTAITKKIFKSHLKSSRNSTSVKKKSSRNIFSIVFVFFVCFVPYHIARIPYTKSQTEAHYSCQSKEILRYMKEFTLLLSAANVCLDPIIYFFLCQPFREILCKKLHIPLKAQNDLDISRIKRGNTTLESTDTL
Experiment: NanoBRET screen HiBiT-P2RY14 in HEK293
Format: binding
Details: P2RY14; tracer 0.1μM
The response must contain the number and no unit.

Q. Fill blank: measured NanoBRET Fold Response of the compound "N#CN=C(NCCCOc1cccc(CN2CCCCC2)c1)NCCNC(=O)CCOCCOCCOCCOCCNC(=O)CCc1ccc2n1[B-](F)(F)[N+]1=C(c3ccc[nH]3)C=CC1=C2" is ____.
A. 0.98

Q. Fill blank: measured NanoBRET Fold Response of the compound Cc1nc2n(c(=O)c1CCN1CCC(c3noc4cc(F)ccc34)CC1)CCCC2OC(=O)NCCOCCOCCOCCOCCNC(=O)CCc1ccc2n1[B-](F)(F)[N+]1=C(c3ccc[nH]3)C=CC1=C2 (centres unmarked) is ____.
A. 1.02

Q. Fill blank: measured NanoBRET Fold Response of the compound "CC(C)N(CC[C@H](c1ccccc1)c1cc(CCNC(=O)c2ccc(CNC(=O)CCc3ccc4n3[B-](F)(F)[N+]3=C(c5ccc[nH]5)C=CC3=C4)cc2)ccc1O)C(C)C" is ____.
A. 0.86

Q. Fill blank: measured NanoBRET Fold Response of the compound "O=C(CCOCCOCCOCCOCCNC(=O)CCc1ccc2n1[B-](F)(F)[N+]1=C(c3ccc[nH]3)C=CC1=C2)NCCCN1CCN(C2=Nc3ccccc3Oc3ccc(Cl)cc32)CC1" is ____.
A. 0.94

Q. Fill blank: measured NanoBRET Fold Response of the compound "COc1ccccc1N1CCN(CCCCN2C(=O)c3ccc(CNC(=O)CCOCCNC(=O)c4ccc(CNC(=O)CCc5ccc6n5[B-](F)(F)[N+]5=C(c7ccc[nH]7)C=CC5=C6)cc4)cc3C2=O)CC1" is ____.
A. 0.95

Q. Fill blank: measured NanoBRET Fold Response of the compound O=C(CCc1ccc2n1[B-](F)(F)[N+]1=C(c3ccc[nH]3)C=CC1=C2)NCc1ccc(C(=O)NCCOCCC(=O)N[C@@H]2CC[C@@]3(O)[C@H]4Cc5ccc(O)c6c5[C@@]3(CCN4CC3CC3)[C@H]2O6)cc1 [Naltrexone-3-NB590] is ____.
A. 0.95

Q. Fill blank: measured NanoBRET Fold Response of the compound "CCCn1c(=O)c2[nH]c(-c3ccc(OCC(=O)NCCNC(=O)CCOCCNC(=O)c4ccc(CNC(=O)CCc5ccc6n5[B-](F)(F)[N+]5=C(c7ccc[nH]7)C=CC5=C6)cc4)cc3)nc2n(CCC)c1=O" is ____.
A. 0.59

Q. Fill blank: measured NanoBRET Fold Response of the compound "COc1ccccc1N1CCN(CCCCN2C(=O)c3ccc(CNC(=O)CCOCCOCCOCCOCCNC(=O)CCc4ccc5n4[B-](F)(F)[N+]4=C(c6ccc[nH]6)C=CC4=C5)cc3C2=O)CC1" is ____.
A. 1.02
